B1: TPR 5TU (parent)
chain: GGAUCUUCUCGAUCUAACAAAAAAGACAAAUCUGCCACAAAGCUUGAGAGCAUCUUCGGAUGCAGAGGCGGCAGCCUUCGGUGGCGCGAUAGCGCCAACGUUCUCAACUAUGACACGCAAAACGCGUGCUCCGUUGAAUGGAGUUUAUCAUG

# Variants of: B1
# ASSAY_PROCEDURE: polymerase ribozyme fitness, log enrichment relative to wild type (log ratio); higher = more active; in vitro selection for triplet polymerase activity
This sample holds only a part of the variants without activity.
MEASURED_ATTRIBUTE: polymerase ribozyme fitness (log ratio)

A30U G71C C95A : ≤ -4.2
G48A C72G : ≤ -4.2
A47G A52C A97U : -1.2

Q: Given the variant U9A A12C A23G G42C C51A A120C A121U , what is its reported polymerase ribozyme fitness (log ratio)?
Ans: ≤ -4.2

Q: Given the variant A89C A142G , what is its reported polymerase ribozyme fitness (log ratio)?
Ans: -1.52

Q: Given the variant A41G U55A C93U , what is its reported polymerase ribozyme fitness (log ratio)?
Ans: -0.68

# credit: the RNAGym collection of RNA variant scans (doi:10.1073/pnas.2313332121)
